B1: MMP1 (parent)
chain: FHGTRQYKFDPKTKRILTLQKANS

variants of: B1; experiment: protein stability index of a GFP-peptide fusion (GPS, HEK-293T) (PSI 1-6); higher = more stable; details: c terminus: a fixed tail appended;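 further: lentivirally expressed fusions sorted by FACS into six bins by GFP to DsRed ratio, PSI derived from sequencing read proportions per bin multiplied by bin number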
reported.endpoint: protein stability index

[[record]]
ordered_residues = "FHGTRQYKFDPKHKRILTLQKANS [T13H]"
reported_endpoint = "protein stability index"
measured_number = 2.21

[[record]]
ordered_residues = "FHITRQYKFDPKTKRILTLQKANS [G3I]"
reported_endpoint = "protein stability index"
measured_number = 1.78

[[record]]
ordered_residues = "FYGTRQYKFDPKTKRILTLQKANS [H2Y]"
reported_endpoint = "protein stability index"
measured_number = 2.35

[[record]]
ordered_residues = "FHGTRQYKFDPKTKRILTQQKANS [L19Q]"
reported_endpoint = "protein stability index"
measured_number = 1.87

[[record]]
ordered_residues = "FHGTRQYKFDPKTKRILTLQKANC [S24C]"
reported_endpoint = "protein stability index"
measured_number = 2.01

[[record]]
ordered_residues = "FHGTRQYKFDPKTKRILTHQKANS [L19H]"
reported_endpoint = "protein stability index"
measured_number = 1.59

[[record]]
ordered_residues = "FPGTRQYKFDPKTKRILTLQKANS [H2P]"
reported_endpoint = "protein stability index"
measured_number = 1.68

[[record]]
ordered_residues = "FHGTRQYKFDPKTKRILTLHKANS [Q20H]"
reported_endpoint = "protein stability index"
measured_number = 2.09

[[record]]
ordered_residues = "FHGTWQYKFDPKTKRILTLQKANS [R5W]"
reported_endpoint = "protein stability index"
measured_number = 2.45

[[record]]
ordered_residues = "FHGTRQYKFDPKTKRQLTLQKANS [I16Q]"
reported_endpoint = "protein stability index"
measured_number = 1.94

[[record]]
ordered_residues = "FHGTRQYKFDPKTKRYLTLQKANS [I16Y]"
reported_endpoint = "protein stability index"
measured_number = 1.35

[[record]]
ordered_residues = "FHGTRQYKFDPKTKRHLTLQKANS [I16H]"
reported_endpoint = "protein stability index"
measured_number = 1.42

[[record]]
ordered_residues = "FHGTRQYKFDPKTKRILWLQKANS [T18W]"
reported_endpoint = "protein stability index"
measured_number = 2.4

[[record]]
ordered_residues = "FHGTRQYKFDPKTKRILYLQKANS [T18Y]"
reported_endpoint = "protein stability index"
measured_number = 1.51

[[record]]
ordered_residues = "FHGTRHYKFDPKTKRILTLQKANS [Q6H]"
reported_endpoint = "protein stability index"
measured_number = 4.5

[[record]]
ordered_residues = "FHGTRQYKFDPKTKRILDLQKANS [T18D]"
reported_endpoint = "protein stability index"
measured_number = 3.38

[[record]]
ordered_residues = "FHGTRQYKFDPKTWRILTLQKANS [K14W]"
reported_endpoint = "protein stability index"
measured_number = 1.95

[[record]]
ordered_residues = "FHGTRQYKFDPKTKRILTLQKANQ [S24Q]"
reported_endpoint = "protein stability index"
measured_number = 2.07

[[record]]
ordered_residues = "FHGTRQYKIDPKTKRILTLQKANS [F9I]"
reported_endpoint = "protein stability index"
measured_number = 1.68

[[record]]
ordered_residues = "FHGTRQYKFDPKTKRILTLQKVNS [A22V]"
reported_endpoint = "protein stability index"
measured_number = 1.45

[[record]]
ordered_residues = "FLGTRQYKFDPKTKRILTLQKANS [H2L]"
reported_endpoint = "protein stability index"
measured_number = 2.36

[[record]]
ordered_residues = "FHGTRQYKFDPKTKRIRTLQKANS [L17R]"
reported_endpoint = "protein stability index"
measured_number = 2.56

[[record]]
ordered_residues = "FHGTRQYKFDPKTKRILTLQTANS [K21T]"
reported_endpoint = "protein stability index"
measured_number = 1.54

[[record]]
ordered_residues = "FHGTRQYKFDPKTKRIPTLQKANS [L17P]"
reported_endpoint = "protein stability index"
measured_number = 1.57

[[record]]
ordered_residues = "FHGTRQYKFDPKTKRILTLQKANH [S24H]"
reported_endpoint = "protein stability index"
measured_number = 2.58

[[record]]
ordered_residues = "FHGTRQYKFDPKTKRILTLQKANE [S24E]"
reported_endpoint = "protein stability index"
measured_number = 1.79

[[record]]
ordered_residues = "FHGTRQFKFDPKTKRILTLQKANS [Y7F]"
reported_endpoint = "protein stability index"
measured_number = 1.75

[[record]]
ordered_residues = "FHGTRQYKFDPKTKRALTLQKANS [I16A]"
reported_endpoint = "protein stability index"
measured_number = 2.8

[[record]]
ordered_residues = "FHGTRQIKFDPKTKRILTLQKANS [Y7I]"
reported_endpoint = "protein stability index"
measured_number = 1.94

[[record]]
ordered_residues = "FHGTRQYKFDPTTKRILTLQKANS [K12T]"
reported_endpoint = "protein stability index"
measured_number = 1.73

[[record]]
ordered_residues = "FHGTRQYKFDPKTKRILTGQKANS [L19G]"
reported_endpoint = "protein stability index"
measured_number = 2.94

[[record]]
ordered_residues = "FHGTRQYKFNPKTKRILTLQKANS [D10N]"
reported_endpoint = "protein stability index"
measured_number = 1.22

[[record]]
ordered_residues = "FHGTRQYKFDPKIKRILTLQKANS [T13I]"
reported_endpoint = "protein stability index"
measured_number = 1.8

[[record]]
ordered_residues = "FHGTRQYKFDEKTKRILTLQKANS [P11E]"
reported_endpoint = "protein stability index"
measured_number = 1.67

[[record]]
ordered_residues = "FHGTRQYKFDPKTKRILQLQKANS [T18Q]"
reported_endpoint = "protein stability index"
measured_number = 1.73

[[record]]
ordered_residues = "FHGTRQYKFDPPTKRILTLQKANS [K12P]"
reported_endpoint = "protein stability index"
measured_number = 2.26

[[record]]
ordered_residues = "FHGTRQYKFDPKTKRCLTLQKANS [I16C]"
reported_endpoint = "protein stability index"
measured_number = 1.68

[[record]]
ordered_residues = "FHGTRQYKFDPKTLRILTLQKANS [K14L]"
reported_endpoint = "protein stability index"
measured_number = 1.99

[[record]]
ordered_residues = "FHGTRQYKFDGKTKRILTLQKANS [P11G]"
reported_endpoint = "protein stability index"
measured_number = 1.66

[[record]]
ordered_residues = "FHGTRQYKFDPYTKRILTLQKANS [K12Y]"
reported_endpoint = "protein stability index"
measured_number = 3.08

[[record]]
ordered_residues = "FHGTRQYSFDPKTKRILTLQKANS [K8S]"
reported_endpoint = "protein stability index"
measured_number = 2.52

[[record]]
ordered_residues = "FHGTRQYKFYPKTKRILTLQKANS [D10Y]"
reported_endpoint = "protein stability index"
measured_number = 2.01

[[record]]
ordered_residues = "FHGTQQYKFDPKTKRILTLQKANS [R5Q]"
reported_endpoint = "protein stability index"
measured_number = 1.83

[[record]]
ordered_residues = "FHCTRQYKFDPKTKRILTLQKANS [G3C]"
reported_endpoint = "protein stability index"
measured_number = 2.63

[[record]]
ordered_residues = "FHGTRQYKFDPKTKRILTLQKAWS [N23W]"
reported_endpoint = "protein stability index"
measured_number = 1.51

[[record]]
ordered_residues = "FHGTRQYAFDPKTKRILTLQKANS [K8A]"
reported_endpoint = "protein stability index"
measured_number = 2.04

[[record]]
ordered_residues = "FHGTRQYKFDRKTKRILTLQKANS [P11R]"
reported_endpoint = "protein stability index"
measured_number = 1.88

[[record]]
ordered_residues = "FHGIRQYKFDPKTKRILTLQKANS [T4I]"
reported_endpoint = "protein stability index"
measured_number = 2.13

[[record]]
ordered_residues = "FHGTRQYKFDPKTKRILKLQKANS [T18K]"
reported_endpoint = "protein stability index"
measured_number = 1.34

[[record]]
ordered_residues = "FHGTRQYKSDPKTKRILTLQKANS [F9S]"
reported_endpoint = "protein stability index"
measured_number = 2.08

[[record]]
ordered_residues = "FHGTRQYKFDPKEKRILTLQKANS [T13E]"
reported_endpoint = "protein stability index"
measured_number = 1.69

[[record]]
ordered_residues = "FHGTRQYKFDPKTKRWLTLQKANS [I16W]"
reported_endpoint = "protein stability index"
measured_number = 1.95

[[record]]
ordered_residues = "FHGTRQYKFDPKTKRIGTLQKANS [L17G]"
reported_endpoint = "protein stability index"
measured_number = 2.38

[[record]]
ordered_residues = "FHGTRQYKFDPKTKRILTLQKTNS [A22T]"
reported_endpoint = "protein stability index"
measured_number = 1.68

[[record]]
ordered_residues = "FHGTRQYKFDPKTKRILTLQKANA [S24A]"
reported_endpoint = "protein stability index"
measured_number = 1.6

[[record]]
ordered_residues = "THGTRQYKFDPKTKRILTLQKANS [F1T]"
reported_endpoint = "protein stability index"
measured_number = 3.4

[[record]]
ordered_residues = "FHGTRQYKFDPKTKRILTLQSANS [K21S]"
reported_endpoint = "protein stability index"
measured_number = 1.81

[[record]]
ordered_residues = "FHGTRQYKFDPKTSRILTLQKANS [K14S]"
reported_endpoint = "protein stability index"
measured_number = 1.69

[[record]]
ordered_residues = "FHGTRQYKFDPKTKKILTLQKANS [R15K]"
reported_endpoint = "protein stability index"
measured_number = 1.66

[[record]]
ordered_residues = "FHGTRQYKFDPKTKRILTLLKANS [Q20L]"
reported_endpoint = "protein stability index"
measured_number = 2.12

[[record]]
ordered_residues = "FHGTRQYKFDPKTKRILTLQKAQS [N23Q]"
reported_endpoint = "protein stability index"
measured_number = 1.85

[[record]]
ordered_residues = "FCGTRQYKFDPKTKRILTLQKANS [H2C]"
reported_endpoint = "protein stability index"
measured_number = 1.88

[[record]]
ordered_residues = "FHGTRQYKFDPKTKRILTKQKANS [L19K]"
reported_endpoint = "protein stability index"
measured_number = 2.05

[[record]]
ordered_residues = "FHGTRQYKFDPKTKRILTLGKANS [Q20G]"
reported_endpoint = "protein stability index"
measured_number = 2.01

[[record]]
ordered_residues = "FHETRQYKFDPKTKRILTLQKANS [G3E]"
reported_endpoint = "protein stability index"
measured_number = 2.61

[[record]]
ordered_residues = "FHGTRQYKFDPKTKRILTLYKANS [Q20Y]"
reported_endpoint = "protein stability index"
measured_number = 1.66

[[record]]
ordered_residues = "FHGHRQYKFDPKTKRILTLQKANS [T4H]"
reported_endpoint = "protein stability index"
measured_number = 1.68

[[record]]
ordered_residues = "FHGTRQYKGDPKTKRILTLQKANS [F9G]"
reported_endpoint = "protein stability index"
measured_number = 2.24

[[record]]
ordered_residues = "FHGTRQYLFDPKTKRILTLQKANS [K8L]"
reported_endpoint = "protein stability index"
measured_number = 1.64

[[record]]
ordered_residues = "FHGTRTYKFDPKTKRILTLQKANS [Q6T]"
reported_endpoint = "protein stability index"
measured_number = 1.6

[[record]]
ordered_residues = "FHGTRQYKFDPKTKRILTLQKNNS [A22N]"
reported_endpoint = "protein stability index"
measured_number = 2.09

[[record]]
ordered_residues = "AHGTRQYKFDPKTKRILTLQKANS [F1A]"
reported_endpoint = "protein stability index"
measured_number = 3

[[record]]
ordered_residues = "FHGTRQYMFDPKTKRILTLQKANS [K8M]"
reported_endpoint = "protein stability index"
measured_number = 2.63

[[record]]
ordered_residues = "FHGTRQYKFDPLTKRILTLQKANS [K12L]"
reported_endpoint = "protein stability index"
measured_number = 1.91

[[record]]
ordered_residues = "FHGTRQYPFDPKTKRILTLQKANS [K8P]"
reported_endpoint = "protein stability index"
measured_number = 1.71

[[record]]
ordered_residues = "FHGTRYYKFDPKTKRILTLQKANS [Q6Y]"
reported_endpoint = "protein stability index"
measured_number = 2.04

[[record]]
ordered_residues = "FHGTRQYKFDPKTKRILTLQKANG [S24G]"
reported_endpoint = "protein stability index"
measured_number = 2.03

[[record]]
ordered_residues = "FHGTNQYKFDPKTKRILTLQKANS [R5N]"
reported_endpoint = "protein stability index"
measured_number = 1.98

[[record]]
ordered_residues = "FHGTRQYKFDPKTKRILTLQKANL [S24L]"
reported_endpoint = "protein stability index"
measured_number = 1.76

[[record]]
ordered_residues = "FHGTRQYKFDPKTKAILTLQKANS [R15A]"
reported_endpoint = "protein stability index"
measured_number = 2.51

[[record]]
ordered_residues = "FHGTRQYKFDPKTKRILTLMKANS [Q20M]"
reported_endpoint = "protein stability index"
measured_number = 1.45

[[record]]
ordered_residues = "FSGTRQYKFDPKTKRILTLQKANS [H2S]"
reported_endpoint = "protein stability index"
measured_number = 2.39

[[record]]
ordered_residues = "FHGTRQYKFDPKTKRILTLQKANP [S24P]"
reported_endpoint = "protein stability index"
measured_number = 2.08

[[record]]
ordered_residues = "FHGTRQYKFDPKTKRILTLQKANK [S24K]"
reported_endpoint = "protein stability index"
measured_number = 1.84

[[record]]
ordered_residues = "FHGTRQQKFDPKTKRILTLQKANS [Y7Q]"
reported_endpoint = "protein stability index"
measured_number = 2.45

[[record]]
ordered_residues = "FHGTRQYKFDPKTKRILTLQLANS [K21L]"
reported_endpoint = "protein stability index"
measured_number = 1.32

[[record]]
ordered_residues = "FHGTRQYKFDPKTKGILTLQKANS [R15G]"
reported_endpoint = "protein stability index"
measured_number = 1.31

[[record]]
ordered_residues = "FHGTRQYKFDHKTKRILTLQKANS [P11H]"
reported_endpoint = "protein stability index"
measured_number = 1.98

[[record]]
ordered_residues = "FHGTHQYKFDPKTKRILTLQKANS [R5H]"
reported_endpoint = "protein stability index"
measured_number = 2.07

[[record]]
ordered_residues = "FHGMRQYKFDPKTKRILTLQKANS [T4M]"
reported_endpoint = "protein stability index"
measured_number = 1.8

[[record]]
ordered_residues = "FHGQRQYKFDPKTKRILTLQKANS [T4Q]"
reported_endpoint = "protein stability index"
measured_number = 2.95


# credit: the supplement of paper PMC10567573
